Where these numbers come from: PubChem BioAssay (EPA / NIEHS)

target: human Vascular Endothelial Growth Factor Receptor 2 (VEGFR2), KDR (gene 3791) (UniProt P35968); assay: NVS_ENZ_hVEGFR2: NovaScreen (NVS) Enzymatic Assay for human Vascular Endothelial Growth Factor Receptor 2 (VEGFR2) (AID 2283230)
Sequence (P35968 whole entry, looked up): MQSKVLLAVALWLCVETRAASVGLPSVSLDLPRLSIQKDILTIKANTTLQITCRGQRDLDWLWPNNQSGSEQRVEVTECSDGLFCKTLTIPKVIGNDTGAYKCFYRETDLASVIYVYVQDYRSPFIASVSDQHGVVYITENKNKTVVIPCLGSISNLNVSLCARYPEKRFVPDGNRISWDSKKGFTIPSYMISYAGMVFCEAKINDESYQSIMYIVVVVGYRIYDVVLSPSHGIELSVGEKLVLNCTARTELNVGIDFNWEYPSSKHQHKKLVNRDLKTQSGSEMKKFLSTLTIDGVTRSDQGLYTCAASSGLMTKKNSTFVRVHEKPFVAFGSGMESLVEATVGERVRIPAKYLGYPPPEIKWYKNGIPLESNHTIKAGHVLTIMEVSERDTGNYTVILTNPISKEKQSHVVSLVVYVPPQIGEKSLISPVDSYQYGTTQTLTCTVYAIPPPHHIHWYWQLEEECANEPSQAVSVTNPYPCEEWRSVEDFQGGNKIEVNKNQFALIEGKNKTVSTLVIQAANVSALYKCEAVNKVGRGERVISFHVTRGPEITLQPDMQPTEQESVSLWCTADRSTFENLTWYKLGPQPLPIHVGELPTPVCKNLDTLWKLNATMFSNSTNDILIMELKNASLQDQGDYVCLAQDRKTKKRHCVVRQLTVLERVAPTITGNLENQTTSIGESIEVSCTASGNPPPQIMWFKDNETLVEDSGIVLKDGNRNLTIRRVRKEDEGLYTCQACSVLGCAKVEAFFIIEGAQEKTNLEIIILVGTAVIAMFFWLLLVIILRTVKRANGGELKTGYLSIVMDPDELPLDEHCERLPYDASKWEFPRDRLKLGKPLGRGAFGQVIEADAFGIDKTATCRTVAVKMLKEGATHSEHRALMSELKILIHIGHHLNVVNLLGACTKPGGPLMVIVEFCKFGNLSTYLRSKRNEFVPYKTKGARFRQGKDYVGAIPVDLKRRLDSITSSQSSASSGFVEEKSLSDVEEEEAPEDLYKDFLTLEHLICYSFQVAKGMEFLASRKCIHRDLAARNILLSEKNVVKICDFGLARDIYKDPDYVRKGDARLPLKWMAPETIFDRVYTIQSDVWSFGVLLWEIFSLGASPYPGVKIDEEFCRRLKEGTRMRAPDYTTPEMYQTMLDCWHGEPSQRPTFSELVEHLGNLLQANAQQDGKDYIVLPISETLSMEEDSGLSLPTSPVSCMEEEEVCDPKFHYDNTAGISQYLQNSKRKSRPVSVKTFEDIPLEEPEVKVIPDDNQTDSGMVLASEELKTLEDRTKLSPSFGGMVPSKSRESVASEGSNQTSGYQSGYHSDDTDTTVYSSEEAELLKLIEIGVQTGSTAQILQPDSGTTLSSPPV
Records with an inconclusive call do not appear. The source made the active and inactive calls. How the source made its calls: active means hit-call score of the fitted dose curve at least 0.9, where 1 is the maximum; inconclusive means response in the unintended direction; inactive means score below 0.9.
Experimental Readout: outcome

Worked cases, outcome given:
INSERT INTO results (smiles_record, experimental_readout, assay_result) VALUES
  ('CN[C@H]1CC[C@@H](c2ccc(Cl)c(Cl)c2)c2ccc(S(N)(=O)=O)cc21', 'outcome', 'inactive'),
  ('Cc1oc(-c2ccccc2)nc1CCOc1cccc2c1ccn2CCC(=O)O', 'outcome', 'inactive'),
  ('CCCCCCOCCO', 'outcome', 'inactive'),
  ('CCc1c(C(=O)NN2CCCCC2)nn(-c2ccc(Cl)cc2Cl)c1-c1ccc(Br)cc1', 'outcome', 'inactive');

As a next step, examine the molecule that follows.
Prompt line: GET /values?readout=outcome&item= CC(C)(C)c1cc(O)c(C(C)(C)C)cc1O
Response line: inactive

====

read-out: Tumor necrosis factor receptor 1 (TNFRSF1A), TNFRSF1A (gene 7132); assay: LTEA_HepaRG_TNFRSF1A: Life Technologies and Expression Analysis (LTEA) Assay for Tumor necrosis factor receptor 1 (TNFRSF1A) using HepaRG (AID 2283535); details: mRNA level, 48 h; actives raise or lower the signal
Calls of active or inactive are those of the source. Rule for the calls: active = hit-call score of the fitted dose curve at least 0.9, where 1 is the maximum; inactive = score below 0.9.
Entry note: the call must match one of true = active, false = inactive

Prompt line: What outcome does the record of this test show for CCCCCCC(=O)OCC ?
Response line: false

Prompt line: Now give it for Cc1cc(=O)[nH]c(=S)[nH]1 too.
Response line: false

Prompt line: Next record, please: Cc1nc(-c2ccc3c(c2)CCN(CCC2CCC(NC(=O)/C=C/c4ccc(F)cc4)CC2)CC3)no1 (centres undefined)
Response line: false

Prompt line: Here is the next molecule: CCCCCCOCCO
Response line: false

Prompt line: Item: CC(CO)OC(C)CO (centres undefined) (tested in a mixture with another compound)
Response line: false

Prompt line: And then CCCCCCCCCCO , what is it?
Response line: false

Prompt line: Again, but for CN1CCCC1=O
Response line: false

Prompt line: Item: CCCCOC(=O)CCCCCCCCC(=O)OCCCC
Response line: false

Prompt line: Likewise for CC(=O)C(C)=CC1C(C)=CCCC1(C)C (centres undefined) ?
Response line: false

Prompt line: One more molecule: Nc1ccccc1N
Response line: true

Prompt line: Here is the next molecule: Nc1nc(N)c2nc(CNc3ccc(C(=O)N[C@@H](CCC(=O)O)C(=O)O)cc3)cnc2n1
Response line: false

Prompt line: Now give it for Cc1c(C(=O)O)c(O)cc2c1C(=O)c1c(O)c([C@@H]3O[C@H](CO)[C@@H](O)[C@H](O)[C@H]3O)c(O)c(O)c1C2=O too.
Response line: false

Prompt line: Next molecule up: Cc1cccc(C)c1O
Response line: false

Prompt line: Try this molecule too: Cc1ccc(C)c(C)c1
Response line: false

Prompt line: Please give the result for C[Si]1(C)O[Si](C)(C)O[Si](C)(C)O[Si](C)(C)O1 too.
Response line: false

Prompt line: Same read-out for C=CCOC(=O)c1ccccc1C(=O)OCC=C ?
Response line: false

Prompt line: Check CCCc1cc(=O)[nH]c(=S)[nH]1 too.
Response line: false

Prompt line: Next record, please: Nc1ccc(S(=O)(=O)c2ccc(N)cc2)cc1
Response line: false

Prompt line: Also, CCNc1cccc(C)c1 please.
Response line: false

Prompt line: Further, for Cc1nc(C)nc(N2C[C@@H](C)N(c3ccnc([C@@H](C)O)n3)[C@@H](C)C2)n1 ?
Response line: false

Prompt line: Next record, please: Cc1ccc(N(C)C)cc1
Response line: false

Prompt line: Quick one: CCCCc1ccc2c(n1)[C@@H](c1ccc(OC)cc1C[C@H](C)C(=O)O)[C@H](C(=O)O)[C@H]2c1ccc2c(c1)OCO2
Response line: false

Prompt line: Check O=C(O)Cc1ccccc1Nc1c(Cl)cccc1Cl too.
Response line: false

Prompt line: Would you kindly repeat that for CC1(C)CC(N=C=O)CC(C)(CN=C=O)C1 (centres undefined) ?
Response line: false

Prompt line: Likewise for OC[C@@H](O)[C@@H](O)[C@H](O)[C@H](O)CO ?
Response line: false

Prompt line: # iterate: Cc1oc(-c2ccccc2)nc1CCOc1cccc2c1ccn2CCC(=O)O
Response line: false

Prompt line: Next: c1cc(-c2ccncc2)ccn1
Response line: false

Prompt line: Follow-up entry: COCCOCCOC
Response line: false

Prompt line: Continue with NCC1(Cc2noc(=O)[nH]2)CCCCC1
Response line: false
